target: Estrogen receptor (Mus musculus)
Sequence (P19785 whole entry): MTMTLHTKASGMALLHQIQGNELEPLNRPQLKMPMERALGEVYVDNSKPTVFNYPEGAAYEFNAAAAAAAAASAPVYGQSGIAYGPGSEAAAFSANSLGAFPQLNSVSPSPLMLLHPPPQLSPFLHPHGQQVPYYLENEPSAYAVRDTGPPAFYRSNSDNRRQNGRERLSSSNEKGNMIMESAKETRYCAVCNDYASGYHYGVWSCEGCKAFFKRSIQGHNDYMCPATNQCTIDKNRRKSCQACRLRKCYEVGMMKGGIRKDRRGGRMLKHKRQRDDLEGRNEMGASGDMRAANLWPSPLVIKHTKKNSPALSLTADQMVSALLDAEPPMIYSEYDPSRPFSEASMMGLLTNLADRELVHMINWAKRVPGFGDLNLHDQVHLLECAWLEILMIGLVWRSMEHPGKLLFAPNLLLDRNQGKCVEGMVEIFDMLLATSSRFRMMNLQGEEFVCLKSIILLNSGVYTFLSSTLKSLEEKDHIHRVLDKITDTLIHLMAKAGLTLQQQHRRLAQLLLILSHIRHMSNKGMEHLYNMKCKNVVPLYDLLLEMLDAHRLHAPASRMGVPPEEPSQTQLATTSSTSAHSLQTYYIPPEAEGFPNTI
pIC50: −log10 of the molar value.

| cpd smiles | pIC50 |
| --- | --- |
| Oc1cc(Br)c2oc(-c3ccc(O)c(F)c3)nc2c1 | 6.70 |
| Oc1ccc(-c2nc3cc(O)ccc3o2)cc1 | 5.79 |
| Oc1ccc(-c2noc3cc(O)ccc23)cc1 | 5.96 |
| Oc1ccc(-c2nc3cc(O)cc(Br)c3o2)cc1 | 6.88 |
| Oc1ccc(-c2nc3ccc(O)cc3o2)cc1 | 5.87 |
| C=Cc1cc(O)cc2nc(-c3ccc(O)c(F)c3)oc12 | 6.13 |

====

Molecular target: Estrogen receptor (Homo sapiens)
Sequence (P03372 whole entry): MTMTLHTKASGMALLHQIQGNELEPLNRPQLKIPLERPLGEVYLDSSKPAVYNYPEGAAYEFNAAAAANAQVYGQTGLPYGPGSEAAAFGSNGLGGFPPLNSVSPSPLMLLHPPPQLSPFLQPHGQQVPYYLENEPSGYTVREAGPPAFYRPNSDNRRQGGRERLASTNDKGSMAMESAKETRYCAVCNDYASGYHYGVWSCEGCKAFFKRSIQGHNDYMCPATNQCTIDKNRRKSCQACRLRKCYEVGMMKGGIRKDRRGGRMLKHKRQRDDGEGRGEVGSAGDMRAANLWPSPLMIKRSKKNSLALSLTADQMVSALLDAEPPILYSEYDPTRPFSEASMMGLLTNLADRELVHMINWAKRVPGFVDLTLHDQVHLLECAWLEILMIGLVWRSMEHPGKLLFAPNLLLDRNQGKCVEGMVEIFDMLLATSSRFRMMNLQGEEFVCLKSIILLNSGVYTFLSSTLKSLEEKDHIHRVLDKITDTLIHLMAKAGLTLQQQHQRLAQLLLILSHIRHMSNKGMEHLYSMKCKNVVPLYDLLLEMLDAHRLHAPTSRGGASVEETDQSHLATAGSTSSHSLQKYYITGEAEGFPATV
pIC50: −log10 of the molar value.
Use label 1 when the recorded pIC50 is no lower than 6; use label 0 when it is lower.

| cpd smiles | category label |
| --- | --- |
| CCCCOc1cc(-c2nc3ccc(O)cc3o2)ccc1O | label 0 |
| O=C(O)c1cc(O)cc2nc(-c3ccc(O)cc3)oc12 | label 0 |
| C=CCc1cc(O)cc2nc(-c3ccc(O)cc3F)oc12 | label 1 |
| C=Cc1cc(O)cc2nc(-c3ccc(O)cc3)oc12 | label 1 |
| C=Cc1cc(O)cc2nc(-c3cc(F)c(O)cc3F)oc12 | label 0 |
| O/N=C/c1cc(O)ccc1-c1noc2cc(O)ccc12 | label 0 |
| Oc1ccc(-c2noc3ccc(O)cc23)c(O)c1 | label 0 |
| COc1c(Br)c(O)c(Br)c2nc(-c3ccc(O)c(F)c3)oc12 | label 1 |
| Oc1ccc2c(-c3nc4cc(F)c(O)cc4o3)cccc2c1 | label 1 |
| N#Cc1cc(O)cc2nc(-c3ccc(O)cc3F)oc12 | label 1 |
| C/C=C\c1cc(O)cc2nc(-c3ccc(O)cc3F)oc12 | label 1 |
| COc1cc(O)c(Br)c2nc(-c3ccc(O)c(F)c3)oc12 | label 0 |
| N#Cc1cc(O)ccc1-c1noc2cc(O)ccc12 | label 1 |
